# Target desc: recombinant human MAO-B (monoamine oxidase-B) (Homo sapiens)
# Construct: purchased Sigma-Aldrich
# Sequence (P27338 1-520): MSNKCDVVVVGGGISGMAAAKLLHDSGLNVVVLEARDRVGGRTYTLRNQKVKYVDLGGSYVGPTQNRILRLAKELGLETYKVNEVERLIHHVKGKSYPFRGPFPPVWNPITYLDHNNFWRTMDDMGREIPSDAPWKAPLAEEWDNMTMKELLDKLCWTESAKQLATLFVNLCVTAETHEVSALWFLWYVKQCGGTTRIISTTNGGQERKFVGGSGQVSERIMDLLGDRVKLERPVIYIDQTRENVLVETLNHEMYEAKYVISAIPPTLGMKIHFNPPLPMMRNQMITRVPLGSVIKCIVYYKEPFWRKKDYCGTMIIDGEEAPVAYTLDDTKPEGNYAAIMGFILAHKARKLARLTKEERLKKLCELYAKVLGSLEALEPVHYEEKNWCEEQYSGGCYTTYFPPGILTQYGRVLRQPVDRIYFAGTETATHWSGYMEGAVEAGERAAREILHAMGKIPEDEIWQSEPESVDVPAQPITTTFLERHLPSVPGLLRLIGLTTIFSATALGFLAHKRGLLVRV
# Assay name: Amplex Red HRP-coupled amine oxidase activity evaluation, recombinant human MAO-B
# Type: biochemical
# Particulars: substrate 1 mM benzylamine; read-out: Inhibitory Activity (IC50, nM) MAO-B
Structures can show the parent of a compound that is named as a salt.
Measurement type: IC50 (nM)

A: CN1C(=O)CCc2cc(-c3cccc(Cn4nnn(CC(CN)=C(F)F)c4=O)c3)ccc21 [Example 33, trifluoroacetate]
B: CN1C(=O)CCc2cc(-c3ccc(Cn4ccn(CC(CN)=C(F)F)c4=O)s3)ccc21 [Example 51, trifluoroacetate]
C: NCC(Cn1nnn(-c2cc(-c3ccc4c(c3)OCO4)cs2)c1=O)=C(F)F [Example 39, trifluoroacetate]
Ask: Sequence the entries by IC50, beginning with the highest number. Respond with the label ranking, as requested.
Reply: B, A, C
(B: 63100 nM, A: 3990 nM, C: 21 nM)

---

# Target desc: recombinant human DAO (diamine oxidase) (Homo sapiens, UniProt P19801)
# Construct: purchased R&D systems
# Sequence (P19801 20-751): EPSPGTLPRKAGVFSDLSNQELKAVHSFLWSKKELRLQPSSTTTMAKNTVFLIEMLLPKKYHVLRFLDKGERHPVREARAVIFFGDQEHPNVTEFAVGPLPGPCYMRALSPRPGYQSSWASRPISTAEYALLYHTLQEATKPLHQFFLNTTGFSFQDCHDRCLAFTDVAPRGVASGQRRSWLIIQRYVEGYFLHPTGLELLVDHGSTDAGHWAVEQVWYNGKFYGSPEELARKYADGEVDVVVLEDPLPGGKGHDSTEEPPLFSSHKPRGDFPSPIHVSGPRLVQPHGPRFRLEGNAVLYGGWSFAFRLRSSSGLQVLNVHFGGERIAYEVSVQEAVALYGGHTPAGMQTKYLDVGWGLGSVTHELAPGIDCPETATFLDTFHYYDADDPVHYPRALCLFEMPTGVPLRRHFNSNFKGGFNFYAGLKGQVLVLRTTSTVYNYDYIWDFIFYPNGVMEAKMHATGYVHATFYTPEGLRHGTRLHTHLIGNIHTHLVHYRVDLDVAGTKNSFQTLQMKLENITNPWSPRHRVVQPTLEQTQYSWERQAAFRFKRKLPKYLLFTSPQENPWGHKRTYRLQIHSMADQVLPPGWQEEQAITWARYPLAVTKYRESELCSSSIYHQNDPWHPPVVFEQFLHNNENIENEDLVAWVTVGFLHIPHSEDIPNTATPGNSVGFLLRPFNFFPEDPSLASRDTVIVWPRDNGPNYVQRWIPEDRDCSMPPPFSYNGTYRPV
# Assay name: Amplex Red HRP-coupled amine oxidase activity evaluation, recombinant human DAO
# Format: biochemical
# Particulars: substrate 1 mM putrescine; read-out: Inhibitory Activity (IC50, nM) DAO
Where a name gives a salt, the structure may show the parent alone.
Measurement type: IC50 (nM)

Examples with answers:
// field: IC50; key: CN1C(=O)CCc2cc(-c3ccc(Cn4ccn(CC(CN)=C(F)F)c4=O)s3)ccc21 [Example 51, trifluoroacetate] ; value = 206

// field: IC50; key: CN1C(=O)CCc2cc(-c3ccc(Cn4nnn(CC(CN)=C(F)F)c4=O)s3)ccc21 [Example 46, trifluoroacetate] ; value = 1050

// field: IC50; key: CN1C(=O)CCc2cc(-c3ccc(-n4nnn(CC(CN)=C(F)F)c4=O)cc3)ccc21 [Example 21, trifluoroacetate] ; value = 38

// field: IC50; key: CCn1cc(-c2ccc(Cn3ccn(CC(CN)=C(F)F)c3=O)s2)ccc1=O [Example 50, trifluoroacetate] ; value = 8.3

// field: IC50; key: NCC(Cn1nnn(-c2ccc(-c3ccc4c(c3)OCO4)cc2)c1=O)=C(F)F [Example 19, trifluoroacetate] ; value = 4890

I: CCn1cc(-c2cccc(Cn3nnn(CC(CN)=C(F)F)c3=O)c2)cn1 [Example 32, trifluoroacetate]
II: Cc1cc(-c2csc(-n3nnn(CC(CN)=C(F)F)c3=O)c2)cc2c1NC(=O)CC2 [Example 40, trifluoroacetate]
Ask: Identify the entry with the smaller IC50: I or II . State your choice using its label.
Reply: II

I: CCn1cc(-c2csc(-n3nnn(CC(CN)=C(F)F)c3=O)c2)cn1 [Example 42, trifluoroacetate]
II: CCn1cc(-c2ccc(Cn3nnn(CC(CN)=C(F)F)c3=O)s2)ccc1=O [Example 44]
Ask: Identify the entry with the smaller IC50: I or II . State your choice using its label.
Reply: I

A: CS(=O)(=O)c1ccc(-c2ccc(-n3nnn(CC(CN)=C(F)F)c3=O)cc2)cc1 [Example 16, trifluoroacetate]
B: CN(C)c1ccc(-c2cccc(Cn3nnn(CC(CN)=C(F)F)c3=O)c2)cn1 [Example 29, trifluoroacetate]
Ask: Hi there! Just curious which has the higher IC50 between A and B . State your choice using its label.
Reply: B

1: CCn1cc(-c2cccc(Cn3nnn(CC(CN)=C(F)F)c3=O)c2)ccc1=O [Example 34, trifluoroacetate]
2: NCC(Cn1nnn(-c2ccc(-c3ccc(N4CCNCC4)cc3)cc2)c1=O)=C(F)F [Example 17, di-trifluoroacetate]
Ask: Identify the entry with the smaller IC50: 1 or 2 . State your choice using its label.
Reply: 2
(2: 65 nM, 1: 12500 nM)

---

# Target desc: recombinant human DAO (diamine oxidase) (Homo sapiens)
# Construct: purchased R&D systems
# Assay name: Amplex Red HRP-coupled amine oxidase activity evaluation, recombinant human DAO
# Type: biochemical
# Particulars: substrate 1 mM putrescine; read-out: Inhibitory Activity (IC50, nM) DAO
Structures can show the parent of a compound that is named as a salt.
Measurement type: IC50

Field IC50 (system: recombinant human DAO (diamine oxidase) (Homo sapiens)) for entry Cc1cc(-c2ccc(Cn3c(C)nn(CC(CN)=C(F)F)c3=O)s2)cc2c1NC(=O)CC2 [Example 7, trifluoroacetate] = > 100000 nM

Field IC50 (system: recombinant human DAO (diamine oxidase) (Homo sapiens)) for entry CCn1cc(-c2ccc(-n3nnn(CC(CN)=C(F)F)c3=O)cc2)ccc1=O [Example 18, trifluoroacetate] = > 100000 nM

Field IC50 (system: recombinant human DAO (diamine oxidase) (Homo sapiens)) for entry Cc1nn(CC(CN)=C(F)F)c(=O)n1Cc1ccc(-c2ccc(N(C)C)nc2)s1 [Example 5, trifluoroacetate] = > 100000 nM

Field IC50 (system: recombinant human DAO (diamine oxidase) (Homo sapiens)) for entry CCn1cc(-c2ccc(Cn3c(C)nn(CC(CN)=C(F)F)c3=O)s2)cn1 [Example 1, trifluoroacetate] = > 100000 nM

Field IC50 (system: recombinant human DAO (diamine oxidase) (Homo sapiens)) for entry Cc1nn(CC(CN)=C(F)F)c(=O)n1Cc1ccc(-c2ccc3c(c2)OCO3)s1 [Example 6, trifluoroacetate] = > 100000 nM

Field IC50 (system: recombinant human DAO (diamine oxidase) (Homo sapiens)) for entry CCn1cc(-c2ccc(Cn3c(C)nn(CC(CN)=C(F)F)c3=O)s2)ccc1=O [Example 4, trifluoroacetate] = > 100000 nM

Now for a further compound.
Field IC50 (system: recombinant human DAO (diamine oxidase) (Homo sapiens)) for entry CN(C)c1ccc(-c2csc(-n3nnn(CC(CN)=C(F)F)c3=O)c2)cn1 [Example 38, trifluoroacetate] = > 100000 nM
